Molecular target: T1, Recombinant human CD4 (R&D Systems, Cat. 10327-CD) (human, UniProt P01730 26-390, limits assumed)
T1 construct: Bought reagent; also called huCD4
Assay: BLI Octet, non-clonal supernatant on AMC sensor, 100 nM human CD4, 1:1 local fit;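 also: Single-concentration kinetics per supernatant, with the 1:1 model fitted across both the association and dissociation phases of the sensorgram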
readout.name: koff
Hey, just the number and the unit after it is fine.

{"binder": "75110_07H07A (antibody, V domains shown, Tested as non-clonal AlivaMab Mouse Kappa hybridoma supernatant, captured by anti-mouse IgG Fc sensor) VH: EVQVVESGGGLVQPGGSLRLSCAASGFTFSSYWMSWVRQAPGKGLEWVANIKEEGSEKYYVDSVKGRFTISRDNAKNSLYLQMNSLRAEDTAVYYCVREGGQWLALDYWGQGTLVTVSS VL: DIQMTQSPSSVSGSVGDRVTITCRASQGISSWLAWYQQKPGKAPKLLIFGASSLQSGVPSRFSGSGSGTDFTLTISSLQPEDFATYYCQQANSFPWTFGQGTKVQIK", "reported": "0.00035 s⁻¹"}
{"binder": "75110_12C19A (antibody, V domains shown, Tested as non-clonal AlivaMab Mouse Kappa hybridoma supernatant, captured by anti-mouse IgG Fc sensor) VH: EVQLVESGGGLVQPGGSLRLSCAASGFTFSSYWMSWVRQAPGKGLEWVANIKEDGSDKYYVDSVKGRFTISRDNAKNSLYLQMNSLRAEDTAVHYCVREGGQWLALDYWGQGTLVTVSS VL: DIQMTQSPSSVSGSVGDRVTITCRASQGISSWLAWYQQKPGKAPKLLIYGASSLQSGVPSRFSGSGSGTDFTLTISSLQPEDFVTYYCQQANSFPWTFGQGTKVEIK", "reported": "9.63e-05 s⁻¹"}

Could you now look at the following binder, please?
// 75110_13P22A (antibody, V domains shown, Tested as non-clonal AlivaMab Mouse Kappa hybridoma supernatant, captured by anti-mouse IgG Fc sensor) VH: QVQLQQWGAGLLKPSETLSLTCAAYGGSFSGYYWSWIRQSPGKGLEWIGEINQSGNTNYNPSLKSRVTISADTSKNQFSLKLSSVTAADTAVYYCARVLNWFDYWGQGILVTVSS VL: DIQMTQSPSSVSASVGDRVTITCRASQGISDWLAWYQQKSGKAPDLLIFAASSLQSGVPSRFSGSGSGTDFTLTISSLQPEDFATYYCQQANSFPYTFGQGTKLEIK : koff value = 0.00013 s⁻¹
